target: VchCAγ (Vibrio cholerae, UniProt Q9KVT1); experiment: stopped-flow CO2 hydrase assay, VchCAγ; type: biochemical
Sequence (Q9KVT1 1-184): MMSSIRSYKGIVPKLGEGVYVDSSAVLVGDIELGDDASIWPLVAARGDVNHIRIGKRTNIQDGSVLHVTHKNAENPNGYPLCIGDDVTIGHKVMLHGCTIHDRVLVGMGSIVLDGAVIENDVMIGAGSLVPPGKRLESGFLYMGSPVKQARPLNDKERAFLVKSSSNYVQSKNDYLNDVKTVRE
Quantity name: Ki

Use the examples below as a reference point.
• CC(C)[C@H](NC(=O)c1ccco1)C(=O)NCc1ccc(S(N)(=O)=O)cc1 = 95.3 nM
• C[C@H](NC(=O)c1ccco1)C(=O)NCc1ccc(S(N)(=O)=O)cc1 = 92.8 nM
• CC(C)[C@H](N)C(=O)Nc1ccc(S(N)(=O)=O)cc1 = 88.6 nM

IN: // query Ki value for entry NS(=O)(=O)c1ccc(CNC(=O)CNC(=O)c2ccco2)cc1
OUT: 734 nM

IN: Item: C[C@H](NC(=O)c1ccccc1)C(=O)NCc1ccc(S(N)(=O)=O)cc1
OUT: 261 nM
